A collection of molecules and their measured EC50
- Assay target: GST-RIPK1 (recombinant GST-RIPK1 kinase domain (residues 1-327)) (Homo sapiens, UniProt Q13546)
- Construct: recombinant GST-RIPK1 kinase domain (residues 1-327) enzyme produced from baculovirus-transfected Sf21 cells
- Sequence (Q13546 1-327): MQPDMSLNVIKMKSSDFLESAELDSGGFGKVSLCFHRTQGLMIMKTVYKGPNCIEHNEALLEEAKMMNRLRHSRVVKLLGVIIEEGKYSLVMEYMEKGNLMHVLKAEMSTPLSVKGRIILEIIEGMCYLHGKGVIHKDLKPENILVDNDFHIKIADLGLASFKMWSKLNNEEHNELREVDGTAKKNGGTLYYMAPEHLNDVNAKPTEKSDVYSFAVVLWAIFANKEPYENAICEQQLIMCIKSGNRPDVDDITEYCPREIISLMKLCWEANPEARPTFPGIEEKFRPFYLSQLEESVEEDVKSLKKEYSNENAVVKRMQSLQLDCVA
- Protocol description: RIPK1-ADP-Glo Enzymatic Assay
- Assay context: ten-point titration, top compound concentration of 100000 nM; 25 nM GST-RIPK1, 300 μM ATP, 3 μM dephosphorylated-MBP; 30 min pre-incubation, 150 min reaction
Endpoint: EC50

>  <Molecule>
N#Cc1ccc(OC2CCC2)cc1COC1CC2(C1)OC1CC[C@@H](c3cnccn3)N1C2=O (stereo partly shown) [Example 18.88]

>  <Endpoint>
EC50

>  <Recorded measurement>
169 nM

$$$$
>  <Molecule>
O=C1N2C(CC[C@H]2c2cnccn2)OC12CC(OCc1cnn(-c3ccncc3)c1)C2 (stereo partly shown) [Example 18.52]

>  <Endpoint>
EC50

>  <Recorded measurement>
96 nM

$$$$
>  <Molecule>
COc1ccc2cc(COC3CC4(C3)OC3CC[C@@H](c5cnccn5)N3C4=O)cc(C)c2n1 (stereo partly shown) [Example 18.89]

>  <Endpoint>
EC50

>  <Recorded measurement>
238 nM

$$$$
>  <Molecule>
O=C1N2C(CC[C@H]2c2cnccn2)OC12CC(OCc1ccc3nccn3c1)C2 (stereo partly shown) [Example 18.19]

>  <Endpoint>
EC50

>  <Recorded measurement>
110 nM

$$$$
